- assayed.system: Serine/threonine-protein kinase WNK2 (Homo sapiens) (UniProt Q9Y3S1);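 further: residual WNK2 kinase activity expressed as percent of uninhibited control, assayed in MOPS buffer at pH 7.0 containing EDTA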
- Sequence (Q9Y3S1 whole entry): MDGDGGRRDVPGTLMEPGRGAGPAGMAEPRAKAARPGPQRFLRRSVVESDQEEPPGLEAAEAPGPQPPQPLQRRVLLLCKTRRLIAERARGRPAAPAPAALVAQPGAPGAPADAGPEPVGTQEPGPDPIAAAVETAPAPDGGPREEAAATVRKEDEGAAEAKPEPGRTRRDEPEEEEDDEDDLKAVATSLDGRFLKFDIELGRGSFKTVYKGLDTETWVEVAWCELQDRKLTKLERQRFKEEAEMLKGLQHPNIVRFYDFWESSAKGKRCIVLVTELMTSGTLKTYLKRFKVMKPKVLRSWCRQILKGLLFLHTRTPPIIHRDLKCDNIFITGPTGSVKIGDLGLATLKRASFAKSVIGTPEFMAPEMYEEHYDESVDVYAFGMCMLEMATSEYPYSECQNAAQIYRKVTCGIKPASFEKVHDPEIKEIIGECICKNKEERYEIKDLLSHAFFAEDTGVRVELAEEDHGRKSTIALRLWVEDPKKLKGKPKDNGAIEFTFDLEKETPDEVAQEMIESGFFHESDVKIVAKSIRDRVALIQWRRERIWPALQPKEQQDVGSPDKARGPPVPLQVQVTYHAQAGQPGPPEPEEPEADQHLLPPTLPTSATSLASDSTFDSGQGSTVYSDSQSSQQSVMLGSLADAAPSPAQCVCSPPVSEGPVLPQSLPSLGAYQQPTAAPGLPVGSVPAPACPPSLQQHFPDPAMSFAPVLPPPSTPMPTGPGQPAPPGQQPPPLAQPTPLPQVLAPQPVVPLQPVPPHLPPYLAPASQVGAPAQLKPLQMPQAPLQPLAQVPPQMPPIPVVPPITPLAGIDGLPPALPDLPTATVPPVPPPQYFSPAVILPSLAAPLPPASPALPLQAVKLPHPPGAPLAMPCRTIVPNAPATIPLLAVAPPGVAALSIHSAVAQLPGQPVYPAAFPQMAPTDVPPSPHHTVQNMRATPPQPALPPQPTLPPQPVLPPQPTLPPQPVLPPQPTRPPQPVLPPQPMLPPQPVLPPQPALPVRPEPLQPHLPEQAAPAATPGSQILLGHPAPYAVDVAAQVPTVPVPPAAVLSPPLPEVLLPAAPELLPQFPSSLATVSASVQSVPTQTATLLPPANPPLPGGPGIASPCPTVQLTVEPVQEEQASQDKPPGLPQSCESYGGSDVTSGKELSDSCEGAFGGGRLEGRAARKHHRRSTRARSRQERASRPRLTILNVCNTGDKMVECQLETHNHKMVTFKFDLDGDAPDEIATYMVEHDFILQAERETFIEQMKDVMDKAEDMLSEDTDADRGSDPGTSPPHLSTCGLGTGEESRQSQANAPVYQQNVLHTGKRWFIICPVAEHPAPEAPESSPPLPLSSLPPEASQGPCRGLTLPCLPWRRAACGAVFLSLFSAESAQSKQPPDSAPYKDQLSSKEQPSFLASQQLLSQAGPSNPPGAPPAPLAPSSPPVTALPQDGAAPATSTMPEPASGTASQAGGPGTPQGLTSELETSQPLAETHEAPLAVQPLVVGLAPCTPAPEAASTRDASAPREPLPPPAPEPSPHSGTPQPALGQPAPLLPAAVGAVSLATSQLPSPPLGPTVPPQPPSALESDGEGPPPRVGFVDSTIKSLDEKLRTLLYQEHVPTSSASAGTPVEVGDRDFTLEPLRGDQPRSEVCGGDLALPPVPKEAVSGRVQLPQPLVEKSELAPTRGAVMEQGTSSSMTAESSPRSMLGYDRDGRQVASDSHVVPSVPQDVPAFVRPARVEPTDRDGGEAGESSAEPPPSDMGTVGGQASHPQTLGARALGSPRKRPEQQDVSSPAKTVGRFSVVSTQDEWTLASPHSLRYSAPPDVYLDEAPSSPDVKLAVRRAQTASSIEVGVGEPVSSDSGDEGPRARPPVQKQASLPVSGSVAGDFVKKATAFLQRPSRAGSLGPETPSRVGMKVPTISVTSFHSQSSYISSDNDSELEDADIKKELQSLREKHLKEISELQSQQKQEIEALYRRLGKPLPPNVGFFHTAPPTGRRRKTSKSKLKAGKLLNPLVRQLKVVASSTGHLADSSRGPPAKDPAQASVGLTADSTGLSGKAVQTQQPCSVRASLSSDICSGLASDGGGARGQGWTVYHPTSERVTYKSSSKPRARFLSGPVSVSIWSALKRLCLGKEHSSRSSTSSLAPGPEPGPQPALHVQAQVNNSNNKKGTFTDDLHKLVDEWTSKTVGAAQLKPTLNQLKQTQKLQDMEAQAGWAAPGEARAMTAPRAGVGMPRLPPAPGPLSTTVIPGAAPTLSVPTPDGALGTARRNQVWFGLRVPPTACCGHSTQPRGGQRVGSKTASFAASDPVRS
- experimental.context: at 1 µM
- Description: Millipore: Percentage of residual kinase activity of WNK2 at 1uM relative to control. Control inhibitor: Phosphoric acid* at 0.3uM. Buffer: 8 mM MOPS pH 7.0, 0.2 mM EDTA
assay.metric: residual activity (%)
Your answer should be a plain number; it is taken to be in %.

>  <line.notation>
CC(C)[C@H](CO)Nc1nc(Nc2cc(N)cc(Cl)c2)c2ncn(C(C)C)c2n1

>  <residual activity [%]>
87

$$$$

(Q) What measured residual activity goes with `Cn1sc(=O)n(Cc2ccccc2)c1=O` ?
(A) 96

###

Documented residual activity across a set of compounds
- assayed.system: Tyrosine-protein kinase HCK (Homo sapiens)
- experimental.context: at 10 µM
Your answer should be a plain number; it is taken to be in %.

Before answering, review these 3 worked examples.
>  <compound>
CCCCc1c(-c2ccc(OC)cc2)[nH]c2nccnc12

>  <readout.units>
%

>  <residual activity>
24

$$$$
>  <compound>
CCOC(=O)c1c(C)[nH]c(/C=C2\C(=O)Nc3ccccc32)c1C

>  <readout.units>
%

>  <residual activity>
74

$$$$
>  <compound>
CSc1nc(-c2ccc(F)cc2)c(-c2ccnc(NC(C)c3ccccc3)c2)[nH]1 (centres undefined)

>  <readout.units>
%

>  <residual activity>
51

$$$$

(Q) What measured residual activity goes with `CC(C)N(CCC(=O)c1ccc2ccccc2c1)Cc1ccccc1` ?
(A) 64

(Q) What measured residual activity goes with `COc1cc2nccc(Oc3ccc(NC(=S)NC(=O)c4ccccc4C)cc3)c2cc1OC` ?
(A) 1

(Q) What measured residual activity goes with `CCOc1nc(NC(=O)Cc2cc(OC)ccc2OC)cc(N)c1C#N` ?
(A) 71

(Q) What measured residual activity goes with `Cn1c2ccccc2c2c3c(c4c5ccccc5n(CCC#N)c4c21)CNC3=O` ?
(A) 9

(Q) What measured residual activity goes with `Cc1cc(C)c(/C=C2\C(=O)Nc3ccccc32)[nH]1` ?
(A) 25

(Q) What measured residual activity goes with `Nc1ncnc2c1cnn2-c1ccccc1` ?
(A) 68

Data provenance is ChEMBL document CHEMBL2218924.
